- method.summary: Solubility of DS in presence of hydrophilic polymers (CMC-Na) and cyclodextrins
- Type: physicochemical
- run.parameters: aqueous α-cyclodextrin solution with CMC-Na, aqueous with cosolvent or surfactant or cyclodextrin, thermodynamic from solid; 14% α-CD solution at pH 3 with 0.25% CMC-Na

[
  {
    "molecule": "CCCCCCOC(=O)NC(=N)c1ccc(NCc2nc3cc(C(=O)N(CCC(=O)OCC)c4ccccn4)ccc3n2C)cc1 [DS, dabigatran etexilate]",
    "solubility at 24 h": "~67.3 mg/mL"
  }
]

----------
- method.summary: Solubility of the active ingredient (DS) in cyclodextrin solutions at various pH values (UV/VIS)
- Format: physicochemical
- run.parameters: aqueous α-cyclodextrin solution, aqueous with cosolvent or surfactant or cyclodextrin, thermodynamic from solid; 10% (w/v) α-CD solution at pH 3
- Procedure: Dabigatranetexilat methanesulphonate is tested for its solubility in dependency of the presence of various cyclodextrins at various ph values as follows: 2 ml Eppendorf tubes can be filled with about 1.8 ml aqueous solution with a selected pH value. The volume used for the screening is 1.8 ml. The molar amount of cyclodextrin (CD) in the given volume is calculated for the given CD concentration. For a given molar ratio of active ingredient DS/CD the amount of active ingredient (DS) is calculated. […]

[
  {
    "molecule": "CCCCCCOC(=O)NC(=N)c1ccc(NCc2nc3cc(C(=O)N(CCC(=O)OCC)c4ccccn4)ccc3n2C)cc1 [DS, dabigatran etexilate]",
    "solubility at 24 h": "~43 mg/mL"
  }
]

The origin of these recorded values is patent US20140343105A1.
